# assay.system: Solute carrier organic anion transporter family member 1B3 (Homo sapiens, UniProt Q9NPD5)
# Sequence (Q9NPD5 whole entry): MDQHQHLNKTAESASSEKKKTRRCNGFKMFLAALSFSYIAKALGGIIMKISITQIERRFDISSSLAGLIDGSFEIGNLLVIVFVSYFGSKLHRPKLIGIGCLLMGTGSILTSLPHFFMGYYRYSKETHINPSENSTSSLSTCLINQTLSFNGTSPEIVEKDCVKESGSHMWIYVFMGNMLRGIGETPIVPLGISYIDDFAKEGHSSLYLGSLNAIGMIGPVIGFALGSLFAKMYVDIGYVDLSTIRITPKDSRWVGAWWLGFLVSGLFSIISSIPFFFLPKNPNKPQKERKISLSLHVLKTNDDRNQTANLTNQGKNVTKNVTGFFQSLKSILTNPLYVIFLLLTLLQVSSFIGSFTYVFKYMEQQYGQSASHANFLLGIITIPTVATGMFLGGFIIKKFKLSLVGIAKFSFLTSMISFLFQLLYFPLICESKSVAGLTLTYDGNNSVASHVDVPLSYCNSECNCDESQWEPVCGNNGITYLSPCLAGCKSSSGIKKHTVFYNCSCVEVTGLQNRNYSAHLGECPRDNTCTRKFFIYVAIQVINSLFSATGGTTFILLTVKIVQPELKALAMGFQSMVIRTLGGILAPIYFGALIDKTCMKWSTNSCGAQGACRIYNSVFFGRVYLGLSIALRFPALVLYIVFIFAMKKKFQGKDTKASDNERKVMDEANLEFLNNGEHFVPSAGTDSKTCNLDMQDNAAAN
# reported.conditions: chinese hamster, cho, 10 µM
List of residual activity values.
Give the value, in units of %, as a plain number.

Example entries and their recorded answers appear below.
| compound | assay.system | units.of.measure | residual activity |
| --- | --- | --- | --- |
| CCc1nc(N)nc(N)c1-c1ccc(Cl)cc1 [PYRIMETHAMINE] | Solute carrier organic anion transporter family member 1B3 (Homo sapiens, UniProt Q9NPD5) | % | 107.4 |
| NCC(CC(=O)O)c1ccc(Cl)s1 (stereo not given) | Solute carrier organic anion transporter family member 1B3 (Homo sapiens, UniProt Q9NPD5) | % | 99.7 |

Recorded residual activity for CCCCOC(=O)c1ccc(N)cc1 [BUTAMBEN] on Solute carrier organic anion transporter family member 1B3 (Homo sapiens, UniProt Q9NPD5) was 124.9

Value (residual activity, Solute carrier organic anion transporter family member 1B3 (Homo sapiens, UniProt Q9NPD5)) for record NCCC(=O)c1ccccc1N [KYNURAMINE] = 89.22

The observed residual activity for CCCCCC(=O)O[C@]1(C(C)=O)CC[C@H]2[C@@H]3CCC4=CC(=O)CC[C@]4(C)[C@H]3CC[C@@]21C [HYDROXYPROGESTERONE CAPROATE] when tested with Solute carrier organic anion transporter family member 1B3 (Homo sapiens, UniProt Q9NPD5) stands at 55.76
